Reported protein stability index by item:
B1: TRAF3IP2 (parent)
chain: YGHDYPRAAYQQVIQPALPGQPLP

# Variants of: B1
# ASSAY COMMENT: protein stability index of a GFP-peptide fusion (GPS, HEK-293T) (PSI 1-6); higher = more stable;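 further: lentivirally expressed fusions sorted by FACS into six bins by GFP to DsRed ratio, PSI derived from sequencing read proportions per bin multiplied by bin number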
# STATED CONDITIONS: c terminus: a fixed tail appended

SEQUENCE CHAIN: YGHDYPRAAYQQVIQPALPGQPLI [P24I]
protein stability index: 1.78
//
SEQUENCE CHAIN: YGHDYPRAAYQQVIQPALPGQWLP [P22W]
protein stability index: 1.26
//
SEQUENCE CHAIN: YGHDYPRQAYQQVIQPALPGQPLP [A8Q]
protein stability index: 2.65
//
SEQUENCE CHAIN: YGHDYPRAAYAQVIQPALPGQPLP [Q11A]
protein stability index: 2.75
//
SEQUENCE CHAIN: YGHDYPRAAYQMVIQPALPGQPLP [Q12M]
protein stability index: 3.06
//
SEQUENCE CHAIN: YGHDYPRAAYQQVIQPALPGTPLP [Q21T]
protein stability index: 2.1
//
SEQUENCE CHAIN: YGHDYPRAAYQQVIQPALPGQPMP [L23M]
protein stability index: 2.59
//
SEQUENCE CHAIN: YGHDYPRAAYRQVIQPALPGQPLP [Q11R]
protein stability index: 1.59
//
SEQUENCE CHAIN: YGHDYPRAAYQQVIQPAHPGQPLP [L18H]
protein stability index: 1.9
//
SEQUENCE CHAIN: YGHDYPRAAYQQVIYPALPGQPLP [Q15Y]
protein stability index: 2.53
//
SEQUENCE CHAIN: YMHDYPRAAYQQVIQPALPGQPLP [G2M]
protein stability index: 2.15
//
SEQUENCE CHAIN: YGHDYPTAAYQQVIQPALPGQPLP [R7T]
protein stability index: 2.6
//
SEQUENCE CHAIN: YGHDYPRAASQQVIQPALPGQPLP [Y10S]
protein stability index: 1.75
//
SEQUENCE CHAIN: YGHDYPRAAYQQSIQPALPGQPLP [V13S]
protein stability index: 2.6
//
SEQUENCE CHAIN: YGHDYPRAAYQQVIQAALPGQPLP [P16A]
protein stability index: 1.94
//
SEQUENCE CHAIN: YGHDYPRAAYQQVIQPALPGQPLC [P24C]
protein stability index: 2
//
SEQUENCE CHAIN: YHHDYPRAAYQQVIQPALPGQPLP [G2H]
protein stability index: 2.46
//
SEQUENCE CHAIN: YGHDYPRAAYQQVIQPALPGLPLP [Q21L]
protein stability index: 2.02
//
SEQUENCE CHAIN: YGHDYPRAAYQQVIQPALPGQPNP [L23N]
protein stability index: 2.09
//
SEQUENCE CHAIN: YGHDYPRAAQQQVIQPALPGQPLP [Y10Q]
protein stability index: 2.07
//
SEQUENCE CHAIN: YGHDYPRAAYQQVIQPALPGQILP [P22I]
protein stability index: 1.82
//
SEQUENCE CHAIN: YGHDYPRAAYQQVVQPALPGQPLP [I14V]
protein stability index: 1.67
